target: T1, CD71 apical domain (UniProt P02786 189-383, limits assumed); experiment: solution ELISA
T1 construct: domain: Apical domain
T1 sequence (P02786 189-383 limits assumed): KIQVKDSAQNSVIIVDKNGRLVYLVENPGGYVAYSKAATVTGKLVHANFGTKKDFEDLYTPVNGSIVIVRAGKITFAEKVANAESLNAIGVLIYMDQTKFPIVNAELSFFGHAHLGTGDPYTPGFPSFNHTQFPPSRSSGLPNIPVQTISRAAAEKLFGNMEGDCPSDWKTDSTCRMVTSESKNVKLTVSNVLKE
Provide the reported Apical domain, RLU of each item.
Numbers only, in RLU.

SEQ ID NO 165 (designed binder, FN3 domain) MLPAPKNLVVSRVTEDSARLSWTAPDAAFDSFYIAYAEPRPDGEAIVLQVPGSERSYDLTGLKPGTEYSVLIHGVKGGLLSSPLAAWFTT ... 8.37e+06

Then there is this binder:
Identify measured Apical domain, RLU corresponding to SEQ ID NO 166 (designed binder, FN3 domain) MLPAPKNLVVSRVTEDSARLSWTAPDAAFDSFYIAYAEPRPDGEAIFLQVPGSERSYDLTGLKPGTEYSVLIHGVKGGLLSSPLNAFFTT 6.08e+06
